System: MALME-3M melanoma
Experiment: NCI tumour cell line growth inhibition, 48 h
QUANTITY_NAME: TGI

Could you share what TGI was measured for O=C1c2cc([N+](=O)[O-])cnc2S(=O)(=O)N1c1ccc(Oc2ccccc2)cc1 , tested on MALME-3M melanoma?
> 100 µM

Item: Clc1ccc(C2=NN(c3ccccc3)C3c4cc(Br)ccc4OCC23)cc1 (stereo unspecified)
> 100 µM

Item: CN(N=O)C(N)=NC(=O)c1ccccc1
> 100 µM

Item: COc1ccc(C(c2ccccc2)N2C(=O)CCC2C(=O)O)cc1OC (stereo unspecified)
> 100 µM

Item: C[C@@H](Oc1cc(-n2cnc3ccc(OCC4CCN(C)CC4)cc32)sc1C(N)=O)c1ccccc1C(F)(F)F
6.97 µM

Item: CCCCC[C@H]1CC=CC(=O)O1
33.9 µM

Item: Cn1cc(-c2nonc2-c2cn(C)c3ccc(Br)cc23)c2ccccc21
> 100 µM

Item: N=C(N)c1ccc(-c2ccc(-c3ccccc3)o2)cc1
3.12 µM

Item: CC(=O)Nc1ccc2c(c1)C(=Nc1ccc(C(=O)O)cc1)c1ccccc1-2
> 100 µM

Item: Cc1ccc(CCCC(=O)O)cc1C
> 100 µM

Item: COc1cc2c(c(Br)c1N)-c1cc(Br)c(N)cc1C2=O
> 100 µM
